Just for reference, patent US20200199692A1 is where these values come from.

- Tested on: Commercial Bifidobacterium
- test.description: Antibiotic resistance profile (E-test, ABBiodisk)
- Format: cell-based
- experimental.conditions: Etest strips in agar; Commercial Bifidobacterium reference strain; read-out: MIC
Classify: yes (1) when MIC is strictly less than 0.2 µg/mL; no (0) when MIC is not.

compound.structure.string	category
CC1(C)S[C@@H]2[C@H](NC(=O)[C@H](N)c3ccc(O)cc3)C(=O)N2[C@H]1C(=O)O	yes (1)
CO[C@H]1/C=C/O[C@@]2(C)Oc3c(C)c(O)c4c(O)c(c(/C=N/N5CCN(C)CC5)c(O)c4c3C2=O)NC(=O)/C(C)=C\C=C\[C@H](C)[C@H](O)[C@@H](C)[C@@H](O)[C@@H](C)[C@H](OC(C)=O)[C@@H]1C	yes (1)
CC[C@H]1OC(=O)[C@H](C)[C@@H](O[C@H]2C[C@@](C)(OC)[C@@H](O)[C@H](C)O2)[C@H](C)[C@@H](O[C@@H]2O[C@H](C)C[C@H](N(C)C)[C@H]2O)[C@](C)(OC)C[C@@H](C)C(=O)[C@H](C)[C@@H](O)[C@]1(C)O	yes (1)

**Query** Determine if "CCC[C@@H]1C[C@@H](C(=O)N[C@@H]([C@H]2O[C@H](SC)[C@H](O)[C@@H](O)[C@H]2O)[C@H](C)Cl)N(C)C1" shows MIC strictly lower than 0.2 µg/mL.
**Result** yes (1)

* * *

- Tested on: Lactobacillus paracasei LMC-4 ID 1953 DSM 32254
- test.description: Antibiotic resistance profile (E-test, ABBiodisk)
- Type: cell-based
- experimental.conditions: Lacticaseibacillus paracasei, DSM32254; Etest strips in agar; strain Lactobacillus paracasei LMC-4 ID 1953 DSM 32254; read-out: MIC
Quick list: MIC per entry.
Write the answer as a number in µg/mL, unit excluded.

Field: example entries. Status: answers known.
compound.structure.string	measured.endpoint	unit	reported.measurement
CC[C@H]1OC(=O)[C@H](C)[C@@H](O[C@H]2C[C@@](C)(OC)[C@@H](O)[C@H](C)O2)[C@H](C)[C@@H](O[C@@H]2O[C@H](C)C[C@H](N(C)C)[C@H]2O)[C@](C)(O)C[C@@H](C)CN(C)[C@H](C)[C@@H](O)[C@]1(C)O	MIC	µg/mL	0.5
NC[C@H]1O[C@H](O[C@H]2[C@H](O)[C@@H](O[C@H]3O[C@H](CO)[C@@H](O)[C@H](N)[C@H]3O)[C@H](N)C[C@@H]2N)[C@H](O)[C@@H](O)[C@@H]1O	MIC	µg/mL	24
O=C(O)c1cn(C2CC2)c2cc(N3CCNCC3)c(F)cc2c1=O	MIC	µg/mL	0.75

**Query** Hello, please tell me recorded MIC for this one: "[H]/N=C(/N)N[C@H]1[C@H](O)[C@@H](O)[C@H](O[C@@H]2O[C@@H](C)[C@](O)(C=O)[C@H]2O[C@@H]2O[C@@H](CO)[C@H](O)[C@@H](O)[C@@H]2NC)[C@@H](N/C(N)=N\[H])[C@@H]1O"
**Result** 12

**Query** Hello, please tell me recorded MIC for this one: "CC[C@H]1OC(=O)[C@H](C)[C@@H](O[C@H]2C[C@@](C)(OC)[C@@H](O)[C@H](C)O2)[C@H](C)[C@@H](O[C@@H]2O[C@H](C)C[C@H](N(C)C)[C@H]2O)[C@](C)(OC)C[C@@H](C)C(=O)[C@H](C)[C@@H](O)[C@]1(C)O"
**Result** 0.047

**Query** Hello, please tell me recorded MIC for this one: "CC1(C)S[C@@H]2[C@H](NC(=O)[C@H](N)c3ccc(O)cc3)C(=O)N2[C@H]1C(=O)O"
**Result** 0.25

**Query** Hello, please tell me recorded MIC for this one: "CC(=O)NC[C@H]1CN(c2ccc(N3CCOCC3)c(F)c2)C(=O)O1"
**Result** 0.38
